Target: UniProtKB P21730
Sequence (whole entry): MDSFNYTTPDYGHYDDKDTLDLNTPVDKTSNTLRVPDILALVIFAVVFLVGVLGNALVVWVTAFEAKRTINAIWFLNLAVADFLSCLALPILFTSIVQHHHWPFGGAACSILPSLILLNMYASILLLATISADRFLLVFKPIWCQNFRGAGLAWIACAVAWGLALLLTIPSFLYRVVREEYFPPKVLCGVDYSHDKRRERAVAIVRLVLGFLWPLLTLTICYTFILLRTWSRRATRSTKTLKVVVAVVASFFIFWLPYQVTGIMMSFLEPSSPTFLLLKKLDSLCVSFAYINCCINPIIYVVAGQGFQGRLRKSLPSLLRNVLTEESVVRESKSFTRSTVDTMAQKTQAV
Test: Pharmacological activity against C5a receptor in human fetal artery
Bridge positions count the residues as written; N and C are the ends. Peptide text beside a SMILES is read from it.
Listing: pD2 of selected compounds
quantity: pD2

INSERT INTO results (compound, recorded_value) VALUES
  ('CSCC[C@H](NC(=O)[C@H](CC(=O)O)NC(=O)[C@H](CCCCN)NC(=O)[C@H](Cc1ccccc1)NC(=O)[C@H](CO)NC(=O)[C@@H](N)Cc1ccc(O)cc1)C(=O)N[C@@H](CCC(N)=O)C(=O)N[C@@H](CC(C)C)C(=O)N1CCC[C@H]1C(=O)N[C@@H](CCCN=C(N)N)C(=O)O', '< 3'),
  ('CSCC[C@H](NC(=O)[C@H](CC(=O)O)NC(=O)[C@H](CCCCN)NC(=O)[C@H](Cc1ccccc1)NC(=O)[C@H](CO)NC(=O)[C@@H](N)Cc1ccc(O)cc1)C(=O)N[C@@H](CCC(N)=O)C(=O)N[C@@H](CC(C)C)C(=O)N[C@H](C)C(=O)N[C@@H](CCCN=C(N)N)C(=O)O', 5.42),
  ('CC(C)C[C@@H]1NC(=O)[C@@H]2CCCN2C(=O)[C@@H](NC(=O)[C@H](CC(=O)O)NC(=O)[C@H](CCCCN)NC(=O)[C@H](Cc2ccccc2)NC(=O)[C@H](CO)NC(=O)[C@@H](N)Cc2ccc(O)cc2)CSSC[C@@H](C(=O)N[C@@H](CCCN=C(N)N)C(=O)O)NC1=O (H-YSFKDCPLCR-OH; disulfide 6-9)', '< 4');

###

Target: C5a anaphylatoxin chemotactic receptor 1 (Homo sapiens)
Sequence (whole entry): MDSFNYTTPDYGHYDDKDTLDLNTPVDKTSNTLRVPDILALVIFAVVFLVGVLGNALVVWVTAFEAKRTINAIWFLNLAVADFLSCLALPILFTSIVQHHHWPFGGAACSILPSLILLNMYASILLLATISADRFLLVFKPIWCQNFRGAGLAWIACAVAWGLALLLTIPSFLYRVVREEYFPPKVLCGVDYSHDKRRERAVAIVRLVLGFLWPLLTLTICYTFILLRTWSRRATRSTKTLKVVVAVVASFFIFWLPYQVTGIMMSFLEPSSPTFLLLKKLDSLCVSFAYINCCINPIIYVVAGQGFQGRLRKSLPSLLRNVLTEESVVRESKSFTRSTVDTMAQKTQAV
Test: Pharmacological activity against C5a receptor in human fetal artery
Peptide text beside a SMILES is read from it.
quantity: pD2

INSERT INTO measurements (molecule, recorded_value) VALUES
  ('CSCC[C@H](NC(=O)[C@H](CC(=O)O)NC(=O)[C@H](CCCCN)NC(=O)[C@H](Cc1ccccc1)NC(=O)[C@H](CO)NC(=O)[C@@H](N)Cc1ccc(O)cc1)C(=O)N1CCC[C@H]1C(=O)N[C@@H](CC(C)C)C(=O)NCC(=O)N[C@@H](CCCN=C(N)N)C(=O)O', 6.18),
  ('C[C@H](NC(=O)[C@@H]1CCCN1C(=O)[C@H](CCS)NC(=O)[C@H](CC(=O)O)NC(=O)[C@H](CCCCN)NC(=O)[C@H](Cc1ccccc1)NC(=O)[C@H](CO)NC(=O)[C@@H](N)Cc1ccc(O)cc1)C(=O)N[C@H](C)C(=O)N[C@@H](CCCN=C(N)N)C(=O)O', 4.86),
  ('CSCC[C@H](NC(=O)CNC(=O)[C@H](CCCCN)NC(=O)[C@H](Cc1ccccc1)NC(=O)[C@H](CO)NC(=O)[C@@H](N)Cc1ccc(O)cc1)C(=O)N[C@@H](CC(C)C)C(=O)N[C@@H](CC(C)C)C(=O)NCC(=O)N[C@@H](CCCN=C(N)N)C(=O)O', 5.34),
  ('CSCC[C@H](NC(=O)[C@H](CC(=O)O)NC(=O)[C@H](CCCCN)NC(=O)[C@H](Cc1ccccc1)NC(=O)[C@H](CO)NC(=O)[C@@H](N)Cc1ccc(O)cc1)C(=O)N1CCC[C@H]1C(=O)N[C@@H](C)C(=O)NCC(=O)N[C@@H](CCCN=C(N)N)C(=O)O', '< 3'),
  ('CC(C)C[C@H](NC(=O)[C@@H]1CCCN1C(=O)[C@H](CS)NC(=O)[C@H](CC(=O)O)NC(=O)[C@H](CCCCN)NC(=O)[C@H](Cc1ccccc1)NC(=O)[C@H](CO)NC(=O)[C@@H](N)Cc1ccc(O)cc1)C(=O)N[C@@H](CS)C(=O)N[C@@H](CCCN=C(N)N)C(=O)O (H-YSFKDCPLCR-OH)', 4.67),
  ('CSCC[C@H](NC(=O)CNC(=O)[C@H](CCCCN)NC(=O)[C@H](Cc1ccccc1)NC(=O)[C@H](CO)NC(=O)[C@@H](N)Cc1ccc(O)cc1)C(=O)N[C@@H](CC(C)C)C(=O)N[C@@H](CC(C)C)C(=O)NCC(=O)N[C@H](CCCN=C(N)N)C(=O)O', 4.43),
  ('CSCC[C@H](NC(=O)[C@H](CC(=O)O)NC(=O)[C@H](CCCCN)NC(=O)[C@H](Cc1ccccc1)NC(=O)[C@H](CO)NC(=O)[C@@H](N)Cc1ccc(O)cc1)C(=O)N[C@@H](CCC(N)=O)C(=O)N[C@@H](CC(C)C)C(=O)N[C@@H](C)C(=O)N[C@@H](CCCN=C(N)N)C(=O)O', 4.04),
  ('CC(C)C[C@H](NC(=O)[C@@H]1CCCN1C(=O)[C@H](C)NC(=O)[C@H](CC(=O)O)NC(=O)[C@H](CCCCN)NC(=O)[C@H](Cc1ccccc1)NC(=O)[C@H](CO)NC(=O)[C@@H](N)Cc1ccc(O)cc1)C(=O)NCC(=O)N[C@@H](CCCN=C(N)N)C(=O)O', 6.11);
